These data points were gathered from ChEMBL document CHEMBL4513216.

System: Plasmodium berghei
TEST_NAME: Screen against P. berghei liver stage (PbLuc), transformed with Luciferase, at 10uM
Type: functional, HepG2
TEST_PARAMETERS: tested at 10 uM
Hit rate of the full screen: of about 69,000 compounds, about 8,600 (12%) showed an effect of 50% or more. The sample holds strong results, similar compounds and a random draw of the others, so the mix is not that of the screen.
Please go through the items and note down their INHIBITION.
Record the value in %, omitting the unit from your answer.

Exam item: Please report the measured INHIBITION for `Cc1cc(C)n(CC(=O)Nc2cc(-c3ccncc3)[nH]n2)n1`
Marked response: 5.94

Exam item: Please report the measured INHIBITION for CCC(C#N)NC(=O)CCNC(=O)C(C)(C)C (stereo not drawn)
Marked response: -0.991

Exam item: Please report the measured INHIBITION for `CCN(Cc1c(F)cccc1F)Cn1nc(C)c2c(C)onc2c1=O`
Marked response: 12.7
